From: paper PMC3873415

Test system: avian influenza virus H9N2
Type: cell-based
So I've got a bunch of compounds here, and I need their Activity (see Table 1) qualitative values.
Answer with a number only.

I have this compound here, O=C(/C=C/c1ccc(O)c(O)c1)O[C@@H]1C[C@](O)(C(=O)O)C[C@@H](O)[C@H]1O , and I need its recorded Activity (see Table 1) qualitative.
0

Consider the compound shown here: O=C1CCC[C@@H]2[C@H]3CCCN4CCC[C@H](CN12)[C@@H]34 What is its recorded Activity (see Table 1) qualitative?
1

What value of Activity (see Table 1) qualitative has been reported for the following compound? CCOC(=O)C1=C[C@@H](OC(CC)CC)[C@H](NC(C)=O)[C@@H](N)C1 [OS (template), Oseltamivir]
1

Data request, read-out Activity (see Table 1) qualitative, for O=C1CCC[C@@H]2[C@H]3CCC[N+]4([O-])CCC[C@@H](CN12)[C@@H]34 (stereo partly shown)
0

Fill in the blank: the reported Activity (see Table 1) qualitative of O=C1CCC[C@@H]2[C@H]3CCC[N+]4([O-])CCC[C@H](CN12)[C@@H]34 (stereo partly shown) is ____.
0

State the recorded Activity (see Table 1) qualitative for this entry: O=C1CCC[C@@H]2[C@H]3CCCN4CCC[C@@H](CN12)[C@@H]34
1

Requested field: Activity (see Table 1) qualitative. Item: CC(=O)Oc1ccccc1C(=O)O
0

###

System: MDCK cells
Measurement Conditions: dog
What TCD0 (maximum non-toxic concentration) was measured for each of the following?
Reply numerically in mg/mL, unit not repeated.

Given the entry CCOC(=O)C1=C[C@@H](OC(CC)CC)[C@H](NC(C)=O)[C@@H](N)C1 [OS (template), Oseltamivir] , report its measured TCD0 (maximum non-toxic concentration).
0.5

What value of TCD0 (maximum non-toxic concentration) has been reported for the following compound? O=C(/C=C/c1ccc(O)c(O)c1)O[C@@H]1C[C@](O)(C(=O)O)C[C@@H](O)[C@H]1O [chlorogenic acid]
0.016

Would you kindly share the measured TCD0 (maximum non-toxic concentration) for O=C1CCC[C@@H]2[C@H]3CCCN4CCC[C@@H](CN12)[C@@H]34 [matrine] ?
0.4

###

Test system: avian influenza virus H9N2
Type: cell-based
Kindly state Activity (see Table 1) semi-quantitative for each of the entries shown.
// return a plain number; no unit text

Endpoint output: Activity (see Table 1) semi-quantitative of O=C1CCC[C@@H]2[C@H]3CCCN4CCC[C@@H](CN12)[C@@H]34 [matrine] . Value?
3

Using the record for O=C1CCC[C@@H]2[C@H]3CCCN4CCC[C@H](CN12)[C@@H]34 [sophoridine] , report its Activity (see Table 1) semi-quantitative.
1

Query (compound): O=C1CCC[C@@H]2[C@H]3CCC[N+]4([O-])CCC[C@@H](CN12)[C@@H]34 (stereo partly shown) [oxymatrine] ; field requested: Activity (see Table 1) semi-quantitative
0

Any idea what Activity (see Table 1) semi-quantitative was measured for O=C(/C=C/c1ccc(O)c(O)c1)O[C@@H]1C[C@](O)(C(=O)O)C[C@@H](O)[C@H]1O [chlorogenic acid] ?
0

Param item = CCOC(=O)C1=C[C@@H](OC(CC)CC)[C@H](NC(C)=O)[C@@H](N)C1 [OS (template), Oseltamivir] ; retrieve measured Activity (see Table 1) semi-quantitative.
3

Which value of Activity (see Table 1) semi-quantitative has been reported for O=C1CCC[C@@H]2[C@H]3CCC[N+]4([O-])CCC[C@H](CN12)[C@@H]34 (stereo partly shown) [oxysophoridine] in the records?
0

Which Activity (see Table 1) semi-quantitative is listed for CC(=O)Oc1ccccc1C(=O)O [aspirin] ?
0
